target: H1 (A/Cali/09/2007); test: ELISA
quantity-name: EC50
# output: numeric value plus its unit

// EC50 lookup, key: VH 8 / VL 7 (antibody, V domains shown) VH: EVQLLESGGGLVQPGGSLRLSCAASGFTFSSYAMHWVRQAPGKGLEWVAVISYDANYKYYADSVKGRFTISRDNSKNTLYLQMNSLRAEDTAVYYCAKDSRLRSLLYFEWLSQGYFDYWGQGTLVTVSS VL: EIVMTQSPATLSVSPGERATLSCRSSQSITFDYKNYLAWYQQKPGQAPRLLIYSASTRATGIPARFSGSGSGTEFTLTISSLQSEDFAVYYCQQHYRTPPSFGQGTKVEIK
0.0318 nM

Recorded EC50 of VH 10 / VL 6 (antibody, V domains shown) VH: QVQLVQSGAEVKKPGSSVKVSCKASGFTFSTYAIHWVRQAPGQGLEWMGVISYDANYKYYAQKFQGRVTITRDNSKSTAYMELSSLRSEDTAVYYCARDSRLRSLLYFEWLSQGYFDYWGQGTTLTVSS VL: EIVMTQSPATLSVSPGERATLSCRSSQSITFDYKNYLAWYQQKPGQAPRLLIYWGSTRATGIPARFSGSGSGTEFTLTISSLQSEDFAVYYCQQHYRTPPSFGQGTKVEIK , please.
0.0175 nM

// returns reported EC50 for input VH 5 / VL 6 (antibody, V domains shown) VH: QVQLVESGGGVVQPGRSLRLSCAASGFTFSTYAMHWVRQAPGKGLEWVCVISYDANYKYYADSVKGRFTCSRDNSKNTLYLQMNSLRAEDTAVYYCARDSRLRSLLYFEWLSQGYFDYWGQGTLVTVSS VL: EIVMTQSPATLSVSPGERATLSCRSSQSITFDYKNYLAWYQQKPGQAPRLLIYWGSTRATGIPARFSGSGSGTEFTLTISSLQSEDFAVYYCQQHYRTPPSFGQGTKVEIK
0.0317 nM
